Origin of the recorded values: ChEMBL document CHEMBL2203036

Property: Ki (µM)
Number only, in µM; omit the unit.

Query :: For the record "Cc1ccc(Sc2ccccc2N2CCNCC2)c(C)c1.Cl" , what value of Ki is listed for Beta-1 adrenergic receptor (Homo sapiens, UniProt P08588)?
Result :: 0.046

----------
# Study System: UniProt:P23977
# Sequence (P23977 whole entry): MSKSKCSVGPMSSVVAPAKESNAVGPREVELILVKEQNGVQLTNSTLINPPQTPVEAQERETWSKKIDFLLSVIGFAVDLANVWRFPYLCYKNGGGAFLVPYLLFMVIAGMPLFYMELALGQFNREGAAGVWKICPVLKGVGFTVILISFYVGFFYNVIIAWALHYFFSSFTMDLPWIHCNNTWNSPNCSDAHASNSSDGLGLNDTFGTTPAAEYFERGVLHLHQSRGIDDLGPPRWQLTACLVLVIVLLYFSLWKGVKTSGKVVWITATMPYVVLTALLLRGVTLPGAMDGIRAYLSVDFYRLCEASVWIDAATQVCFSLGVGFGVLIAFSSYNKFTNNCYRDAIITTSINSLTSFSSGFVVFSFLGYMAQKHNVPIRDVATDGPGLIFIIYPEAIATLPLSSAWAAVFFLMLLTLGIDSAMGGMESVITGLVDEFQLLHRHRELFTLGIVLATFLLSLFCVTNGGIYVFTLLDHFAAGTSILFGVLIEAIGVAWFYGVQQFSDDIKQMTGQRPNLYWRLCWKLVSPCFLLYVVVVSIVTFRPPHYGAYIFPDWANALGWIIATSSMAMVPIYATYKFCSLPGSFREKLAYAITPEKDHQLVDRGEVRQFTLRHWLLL
# Assay Method Text: Inhibition of rat DAT
Property: pIC50
// pIC50 is dimensionless: -log10 of concentration (M)

Query :: Can you share its pIC50? I mean this compound: "Cl.Clc1ccc(Sc2ccccc2N2CCNCC2)cc1"
Result :: 7.35

----------
# Study System: UniProt P31652
# Sequence (P31652 whole entry): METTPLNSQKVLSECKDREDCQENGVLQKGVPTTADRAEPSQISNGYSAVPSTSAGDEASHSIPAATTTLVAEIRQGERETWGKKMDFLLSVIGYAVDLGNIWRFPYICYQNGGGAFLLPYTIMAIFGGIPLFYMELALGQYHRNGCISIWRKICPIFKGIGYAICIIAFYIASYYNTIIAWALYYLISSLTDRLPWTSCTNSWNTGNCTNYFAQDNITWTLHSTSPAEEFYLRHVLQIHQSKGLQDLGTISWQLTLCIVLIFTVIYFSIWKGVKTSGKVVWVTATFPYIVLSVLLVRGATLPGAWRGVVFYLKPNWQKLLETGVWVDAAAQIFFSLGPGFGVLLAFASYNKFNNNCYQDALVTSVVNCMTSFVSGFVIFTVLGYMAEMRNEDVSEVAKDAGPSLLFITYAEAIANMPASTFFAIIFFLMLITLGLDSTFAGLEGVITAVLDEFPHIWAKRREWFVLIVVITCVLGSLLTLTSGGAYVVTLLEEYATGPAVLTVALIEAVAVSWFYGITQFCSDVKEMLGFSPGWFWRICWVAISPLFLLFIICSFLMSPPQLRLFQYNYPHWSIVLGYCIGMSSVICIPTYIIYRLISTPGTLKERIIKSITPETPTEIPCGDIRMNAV
# Assay Method Text: Inhibition of SERT-mediated [3H]5HT uptake in rat synaptosomes by scintillation counting
pIC50: −log10 of the molar value.
Cut-off 8 on pIC50, inclusive. At or above means yes (1); below means no (0).

Query :: # check: pIC50 of "Cc1cccc(Sc2ccccc2N2CCNCC2)c1C" is greater than or equal to 8
Result :: yes (1)

Query :: # check: pIC50 of "Cc1ccc(Sc2ccccc2N2CCNCC2)cc1.Cl" is greater than or equal to 8
Result :: no (0)

Query :: # check: pIC50 of "Cc1ccc(Sc2ccc(C)cc2N2CCNCC2)c(C)c1" is greater than or equal to 8
Result :: no (0)

Query :: # check: pIC50 of "Cc1ccc(Sc2ccccc2N2CCN(C)CC2)c(C)c1" is greater than or equal to 8
Result :: no (0)

Query :: # check: pIC50 of "Cc1ccc(Sc2ccc(C)cc2N2CCNCC2)cc1" is greater than or equal to 8
Result :: no (0)

----------
# Study System: 5-hydroxytryptamine receptor 1B (Homo sapiens)
# Sequence (P28222 whole entry): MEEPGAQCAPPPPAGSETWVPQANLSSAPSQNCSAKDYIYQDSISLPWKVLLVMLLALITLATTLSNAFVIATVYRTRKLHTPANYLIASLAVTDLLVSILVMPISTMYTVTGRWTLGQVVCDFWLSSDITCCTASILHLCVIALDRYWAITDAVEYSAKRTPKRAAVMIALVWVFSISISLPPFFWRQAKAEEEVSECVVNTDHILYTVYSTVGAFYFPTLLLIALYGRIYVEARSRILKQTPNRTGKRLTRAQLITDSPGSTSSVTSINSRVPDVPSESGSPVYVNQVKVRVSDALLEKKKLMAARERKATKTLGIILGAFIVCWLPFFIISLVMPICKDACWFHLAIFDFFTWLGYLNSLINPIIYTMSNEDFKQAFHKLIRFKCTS
Property: Ki
Write your answer as a measured quantity: the number, then the unit.

Query :: Can you share its Ki? I mean this molecule: "Cc1ccc(Sc2ccccc2N2CCNCC2)c(C)c1.Cl"
Result :: 33 nM

----------
# Study System: Cytochrome P450 1A2 (Homo sapiens)
# Sequence (P05177 whole entry): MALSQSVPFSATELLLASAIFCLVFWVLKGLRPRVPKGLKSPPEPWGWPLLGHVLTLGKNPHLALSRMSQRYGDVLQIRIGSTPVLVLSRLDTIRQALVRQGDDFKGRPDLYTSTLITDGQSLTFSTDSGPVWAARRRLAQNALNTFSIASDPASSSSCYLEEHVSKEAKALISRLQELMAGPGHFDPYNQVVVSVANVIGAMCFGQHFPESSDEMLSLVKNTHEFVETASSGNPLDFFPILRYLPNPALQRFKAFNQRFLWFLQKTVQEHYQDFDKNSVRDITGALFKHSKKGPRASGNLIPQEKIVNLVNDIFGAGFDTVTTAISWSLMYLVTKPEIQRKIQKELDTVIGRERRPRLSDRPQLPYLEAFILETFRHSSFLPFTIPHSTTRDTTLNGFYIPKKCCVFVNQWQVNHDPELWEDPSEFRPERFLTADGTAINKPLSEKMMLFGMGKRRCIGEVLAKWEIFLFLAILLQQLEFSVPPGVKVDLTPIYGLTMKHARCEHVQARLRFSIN
# Assay Method Text: Inhibition of human recombinant CYP1A2 using 7-ethoxy-3-cyanocoumarin after 28 mins by fluorescence spectrophotometric analysis
One threshold, 40 µM, splits the recorded IC50 values: lower ones are condition met, equal or higher ones are condition not met.

Query :: Report whether reported IC50 is lower than 40 µM (strictly) for "Cc1ccc(Sc2ccccc2N2CCNCC2)cc1C.Cl"
Result :: condition met

Query :: Report whether reported IC50 is lower than 40 µM (strictly) for "Cl.Clc1ccc(Sc2ccccc2N2CCNCC2)c(Cl)c1"
Result :: condition met

Query :: Report whether reported IC50 is lower than 40 µM (strictly) for "Cc1ccc(Sc2ccccc2N2CCNCC2)c(Cl)c1.Cl"
Result :: condition met

Query :: Report whether reported IC50 is lower than 40 µM (strictly) for "Cc1cccc(Sc2ccccc2N2CCNCC2)c1C"
Result :: condition met

Query :: Report whether reported IC50 is lower than 40 µM (strictly) for "Cl.Clc1ccc(Sc2ccccc2N2CCNCC2)cc1"
Result :: condition not met
